Recorded IC50 [M], NFκB-luciferase, 15 pM hIL-36β by entry
- TARGET DESC: T1, full-length human IL-36R on cells (human, UniProt Q9HB29 20-575)
- T1 sequence (looked up): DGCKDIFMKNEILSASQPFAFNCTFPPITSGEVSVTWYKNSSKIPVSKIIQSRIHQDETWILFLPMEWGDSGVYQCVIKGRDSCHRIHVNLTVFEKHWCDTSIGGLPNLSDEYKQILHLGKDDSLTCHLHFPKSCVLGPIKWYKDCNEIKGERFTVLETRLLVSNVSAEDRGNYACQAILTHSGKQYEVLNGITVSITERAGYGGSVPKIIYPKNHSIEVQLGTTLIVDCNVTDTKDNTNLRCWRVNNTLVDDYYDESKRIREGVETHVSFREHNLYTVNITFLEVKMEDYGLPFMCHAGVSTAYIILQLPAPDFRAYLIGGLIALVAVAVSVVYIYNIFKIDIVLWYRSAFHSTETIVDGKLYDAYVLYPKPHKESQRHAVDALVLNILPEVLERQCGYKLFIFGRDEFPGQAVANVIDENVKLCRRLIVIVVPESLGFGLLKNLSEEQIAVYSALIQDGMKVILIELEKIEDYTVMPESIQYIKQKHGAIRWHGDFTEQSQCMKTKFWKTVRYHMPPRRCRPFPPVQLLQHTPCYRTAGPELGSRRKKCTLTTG
- TEST DESCRIPTION: cell-based or functional assay

BINDER | IC50 [M], NFκB-luciferase, 15 pM hIL-36β / M
H4H14700P2 (antibody, human IgG4 S228P, kappa, V domains shown) VH: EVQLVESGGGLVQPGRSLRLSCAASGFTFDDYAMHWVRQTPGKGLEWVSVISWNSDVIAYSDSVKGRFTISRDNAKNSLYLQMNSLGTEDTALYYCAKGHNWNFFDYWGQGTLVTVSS VL: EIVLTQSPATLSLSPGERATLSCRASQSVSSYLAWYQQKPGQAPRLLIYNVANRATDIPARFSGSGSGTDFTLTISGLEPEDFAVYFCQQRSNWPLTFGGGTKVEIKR | 2e-10
H4H14731P (antibody, human IgG4 S228P, kappa, V domains shown) VH: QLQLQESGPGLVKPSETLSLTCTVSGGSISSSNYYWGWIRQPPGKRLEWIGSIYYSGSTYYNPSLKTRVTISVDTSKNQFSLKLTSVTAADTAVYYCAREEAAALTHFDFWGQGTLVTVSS VL: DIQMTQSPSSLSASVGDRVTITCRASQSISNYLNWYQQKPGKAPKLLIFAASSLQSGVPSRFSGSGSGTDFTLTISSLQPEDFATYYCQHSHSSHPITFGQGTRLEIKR | 9.4e-10
H4H14706P2 (antibody, human IgG4 S228P, kappa, V domains shown) VH: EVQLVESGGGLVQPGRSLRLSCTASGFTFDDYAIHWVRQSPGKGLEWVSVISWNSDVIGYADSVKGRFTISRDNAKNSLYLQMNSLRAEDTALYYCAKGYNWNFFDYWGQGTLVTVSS VL: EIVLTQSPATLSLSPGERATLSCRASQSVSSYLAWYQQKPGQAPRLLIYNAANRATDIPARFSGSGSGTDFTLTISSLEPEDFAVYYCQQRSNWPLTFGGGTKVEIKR | 1.2e-10

Recorded values, source patent US20200017592A1.
